# collection of IC50 values tested on Human immunodeficiency virus type 1 reverse transcriptase (Human immunodeficiency virus 1)
One number for each entry, in nM.

compound_smiles=Cc1cc(C#CC=C2CCN(S(C)(=O)=O)CC2)cc(C)c1Oc1ccnc(Nc2ccc(C#N)cc2)n1 endpoint_unit=nM readout_number=1980

Value sought for every listed molecule: IC50.
1. CCC(=O)N1CCC(=CC#Cc2cc(C)c(Oc3ccnc(Nc4ccc(C#N)cc4)n3)c(C)c2)CC1
2. Cc1cc(C#CC=C2CCNCC2)cc(C)c1Oc1ccnc(Nc2ccc(C#N)cc2)n1

Reply:
1. 2980
2. 130

---

- Tested on: Human immunodeficiency virus 1
- assay-explanation: Antiviral activity against HIV1 harboring RT Y181C mutant infected in human MT4 cells assessed as inhibition of virus-induced cytopathic effect incubated for 5 days by MTT assay
- Type: functional, organism-based
- stated-conditions: Human immunodeficiency virus 1, MT4, 120 h
pEC50: −log10 of the molar value.
Binary call on pEC50: t from 7 upward, f beneath that.

compound_smiles=C=CC(=O)N1CCC(=CC#Cc2cc(C)c(Oc3ccnc(Nc4ccc(C#N)cc4)n3)c(C)c2)CC1 label=f

Task item: pEC50 >= 7 for "Cc1cc(C#CC=C2CCN(Cc3ccccn3)CC2)cc(C)c1Oc1ccnc(Nc2ccc(C#N)cc2)n1" ?
Reply: f

Task item: Check this compound for pEC50 at or above 7: "Cc1cc(C#N)cc(C)c1Oc1nc(Nc2ccc(C#N)cc2)nc(N)c1Br"
Reply: t

Task item: Is reported pEC50 greater than or equal to 7 here: "O=C1Nc2ccc(Cl)cc2[C@@](C#CC2CC2)(C(F)(F)F)O1"
Reply: t

Task item: Is it the case that "CCS(=O)(=O)N1CCC(=CC#Cc2cc(C)c(Oc3ccnc(Nc4ccc(C#N)cc4)n3)c(C)c2)CC1" has pEC50 reaching or exceeding 7?
Reply: f

Task item: Please tell me: is the compound "Cc1cc(C#CC=C2CCNCC2)cc(C)c1Oc1ccnc(Nc2ccc(C#N)cc2)n1" at or over 7 in terms of pEC50?
Reply: f

Task item: Check the entry "Cc1ccnc2c1NC(=O)c1cccnc1N2C1CC1" : does pEC50 equal or exceed 7?
Reply: f

Task item: Does pEC50 meet or surpass 7 for "Cc1cc(C#CC=C2CCN(Cc3ccccc3C#N)CC2)cc(C)c1Oc1ccnc(Nc2ccc(C#N)cc2)n1" ?
Reply: f

---

- Tested on: Human immunodeficiency virus 1
- assay-explanation: Antiviral activity against HIV1 harboring RT F227L/V106A mutant infected in human MT4 cells assessed as inhibition of virus-induced cytopathic effect incubated for 5 days by MTT assay
- Type: functional, organism-based
- stated-conditions: Human immunodeficiency virus 1, MT4, 120 h
measurement-name: EC50 (µM)
Numbers only, in µM.

molecule=Cc1cc(C#CC=C2CCN(Cc3cccc([N+](=O)[O-])c3)CC2)cc(C)c1Oc1ccnc(Nc2ccc(C#N)cc2)n1 readout_number=26.7

Turning now to a further record.
Task item: # EC50 lookup, item Cc1cc(C#N)cc(C)c1Oc1nc(Nc2ccc(C#N)cc2)nc(N)c1Br [ETRAVIRINE]
Reply: 0.02

---

- System: Human immunodeficiency virus 1
- assay-explanation: Antiviral activity against HIV1 harboring RT Y188L mutant infected in human MT4 cells assessed as inhibition of virus-induced cytopathic effect incubated for 5 days by MTT assay
- Assay type: functional, organism-based
- stated-conditions: Human immunodeficiency virus 1, MT4, 120 h
measurement-name: pEC50
One number for each entry, as −log10 of the molar value.

Dear colleague, could you please provide pEC50 for the molecules listed below?
1. Cc1cc(C#CC=C2CCN(C(=O)OC(C)(C)C)CC2)cc(C)c1Oc1ccnc(Nc2ccc(C#N)cc2)n1
2. Cc1cc(C#CC=C2CCNCC2)cc(C)c1Oc1ccnc(Nc2ccc(C#N)cc2)n1
3. Cc1cc(C#CC=C2CCN(C(=O)N(C)C)CC2)cc(C)c1Oc1ccnc(Nc2ccc(C#N)cc2)n1

Reply:
1: 5.25; 2: 6.68; 3: 6.28

---

- System: Human immunodeficiency virus 1
- assay-explanation: Antiviral activity against HIV1 harboring RT F227L/V106A mutant infected in human MT4 cells assessed as inhibition of virus-induced cytopathic effect incubated for 5 days by MTT assay
- Format: functional, organism-based
- stated-conditions: Human immunodeficiency virus 1, MT4, 120 h
measurement-name: EC50

Here is how some compounds turned out for EC50.
compound=Cc1cc(C#CC=C2CCN(S(=O)(=O)N(C)C)CC2)cc(C)c1Oc1ccnc(Nc2ccc(C#N)cc2)n1 result="> 4.79 µM"
compound=COC(=O)c1ccc(CN2CCC(=CC#Cc3cc(C)c(Oc4ccnc(Nc5ccc(C#N)cc5)n4)c(C)c3)CC2)cc1 result="> 33.6 µM"
compound="Cc1cn([C@H]2C[C@H](N=[N+]=[N-])[C@@H](CO)O2)c(=O)[nH]c1=O [ZIDOVUDINE]" result="0.01 µM"
compound=Cc1cc(C#CC=C2CCN(C(=O)OC(C)(C)C)CC2)cc(C)c1Oc1ccnc(Nc2ccc(C#N)cc2)n1 result="> 56.7 µM"
compound=Cc1cc(C#CC=C2CCN(C(=O)N(C)C)CC2)cc(C)c1Oc1ccnc(Nc2ccc(C#N)cc2)n1 result="> 4.43 µM"

Please state EC50 for every compound in the list that follows.
1. Cc1cc(C#CC=C2CCNCC2)cc(C)c1Oc1ccnc(Nc2ccc(C#N)cc2)n1
2. Cc1ccnc2c1NC(=O)c1cccnc1N2C1CC1 [NEVIRAPINE]
3. CCOC(=O)CN1CCC(=CC#Cc2cc(C)c(Oc3ccnc(Nc4ccc(C#N)cc4)n3)c(C)c2)CC1

Reply:
["1.27 µM", "> 15 µM", "> 201 µM"]

---

Kindly state CC50 at 120 h for each of the entries shown.
- assay-explanation: Cytotoxicity against mock-infected human MT4 cells incubated for 5 days by MTT assay
- Assay type: cell-based
- stated-conditions: time 5 day
Answers are plain numbers, in µM.

Here is how some molecules turned out for CC50 at 120 h.
compound_smiles=COC(=O)c1ccc(CN2CCC(=CC#Cc3cc(C)c(Oc4ccnc(Nc5ccc(C#N)cc5)n4)c(C)c3)CC2)cc1 endpoint_unit=µM readout_number=33.6
compound_smiles=Cc1cc(C#CC=C2CCN(S(=O)(=O)C3CC3)CC2)cc(C)c1Oc1ccnc(Nc2ccc(C#N)cc2)n1 endpoint_unit=µM readout_number=4.66

// each listed molecule needs a value for CC50 at 120 h
1. Cc1cc(C#CC=C2CCN(C(=O)OC(C)(C)C)CC2)cc(C)c1Oc1ccnc(Nc2ccc(C#N)cc2)n1
2. CCS(=O)(=O)N1CCC(=CC#Cc2cc(C)c(Oc3ccnc(Nc4ccc(C#N)cc4)n3)c(C)c2)CC1
3. CCOC(=O)CN1CCC(=CC#Cc2cc(C)c(Oc3ccnc(Nc4ccc(C#N)cc4)n3)c(C)c2)CC1
4. CCC(=O)N1CCC(=CC#Cc2cc(C)c(Oc3ccnc(Nc4ccc(C#N)cc4)n3)c(C)c2)CC1

Reply:
[16.7, 4.96, 201, 4.42]

Task item: CC50 at 120 h for "Cc1cc(C#CC=C2CCN(S(C)(=O)=O)CC2)cc(C)c1Oc1ccnc(Nc2ccc(C#N)cc2)n1" ?
Reply: 5.49

---

- System: Human immunodeficiency virus 1
- assay-explanation: Antiviral activity against HIV1 harboring RT Y188L mutant infected in human MT4 cells assessed as inhibition of virus-induced cytopathic effect incubated for 5 days by MTT assay
- Format: functional, organism-based
- stated-conditions: Human immunodeficiency virus 1, MT4, 120 h
measurement-name: EC50 (nM)
Numbers only, in nM.

Field: example entries. Status: answers known.
molecule=Cc1cc(C#CC=C2CCN(S(C)(=O)=O)CC2)cc(C)c1Oc1ccnc(Nc2ccc(C#N)cc2)n1 target_entity="Human immunodeficiency virus 1" readout_number=452
molecule="O=C1Nc2ccc(Cl)cc2[C@@](C#CC2CC2)(C(F)(F)F)O1 [EFAVIRENZ]" target_entity="Human immunodeficiency virus 1" readout_number=212

Batch of 7 molecules: report EC50 for each.
1. C=CC(=O)N1CCC(=CC#Cc2cc(C)c(Oc3ccnc(Nc4ccc(C#N)cc4)n3)c(C)c2)CC1
2. Cc1cc(C#CC=C2CCN(Cc3ccccn3)CC2)cc(C)c1Oc1ccnc(Nc2ccc(C#N)cc2)n1
3. Cc1cc(C#CC=C2CCN(S(=O)(=O)C3CC3)CC2)cc(C)c1Oc1ccnc(Nc2ccc(C#N)cc2)n1
4. Cc1cc(C#CC=C2CCN(Cc3cccc([N+](=O)[O-])c3)CC2)cc(C)c1Oc1ccnc(Nc2ccc(C#N)cc2)n1
5. Cc1cc(C#CC=C2CCN(Cc3ccccc3C#N)CC2)cc(C)c1Oc1ccnc(Nc2ccc(C#N)cc2)n1
6. CCC(=O)N1CCC(=CC#Cc2cc(C)c(Oc3ccnc(Nc4ccc(C#N)cc4)n3)c(C)c2)CC1
7. Cc1cn([C@H]2C[C@H](N=[N+]=[N-])[C@@H](CO)O2)c(=O)[nH]c1=O [ZIDOVUDINE]

Reply:
[409, 1030, 1410, 5330, 16100, 382, 12]

I would be grateful if you could provide EC50 for each of the following entries.
1. Nc1ccn([C@H]2CS[C@@H](CO)O2)c(=O)n1
2. Cc1cc(C#N)cc(C)c1Oc1nc(Nc2ccc(C#N)cc2)nc(N)c1Br [ETRAVIRINE]
3. CCS(=O)(=O)N1CCC(=CC#Cc2cc(C)c(Oc3ccnc(Nc4ccc(C#N)cc4)n3)c(C)c2)CC1

Reply:
[4560, 21, 1280]
